- System: OVCAR-3 ovarian
- protocol-description: NCI-60 one-dose screen, 48 h (100 = growth as untreated, 0 = no growth, -100 = all killed)
- experimental-parameters: 10 µM unless noted
- Description: Growth inhibition of the OVCAR-3 human tumor cell line is measured as a screen for anti-cancer activity. Cells are grown in 96 well plates and exposed to the test compound for 48 hours. Compounds are tested at a single concentration, which is 10^-5 M for most compounds. The reported endpoint is percent growth (GI% or GIPRCNT), where numbers from 0 - 100% represent growth inhibition, and numbers from -100% - 0 represent cell death. For example, a value of 40 represents 60% growth inhibition. […]
This is part of a sample that, as a whole, favours compounds with a hit. Of some 83,000 tested, about 20% had one in any assay.
reported-metric: growth (%)
Answers are plain numbers, in %.

query: Any idea what growth was measured for COc1ccc(C(C)c2cc(OC)c(OC)c(OC)c2)cc1 (centres undefined) ?
result: -14.1

query: Item: CC1(C)[C@@H](O)CC[C@]2(C)[C@H]3CC[C@@H]4[C@H]5[C@H](c6cn(-c7ccccc7)nn6)CC[C@]5(CO)CC[C@@]4(C)[C@]3(C)CC[C@@H]12
result: 88.2

query: Item: CCOCc1nc2ccccc2c(=O)[nH]1
result: 109

query: Item: CCc1c(C(=O)N[C@@H](C(=O)OCc2ccccc2)C(C)O)[nH]c2ccc(Cl)cc12 (some centres undefined)
result: 29.4

query: Item: COc1ccc2oc(=O)cc(-c3c(C#N)c(N)n4nc(N)c(C#N)c4c3C#N)c2c1
result: 91.9

query: Item: Cc1c(Cl)cccc1NC(=O)c1sc2nc3c(cc2c1N)CCCCC3
result: -3.42

Parameters: items (list). Returns: growth for each item.
1. NC[C@@H]1CCN(c2cc3c(cc2F)c(=O)n(N)c(=O)n3Cc2ccc(-c3ccccc3)cc2)C1
2. C=C(C)[C@@H]1CC[C@]2(C(=O)O)CC[C@]3(C)[C@H](CC[C@@H]4[C@@]5(C)C[C@@H](CC#Cc6ccc(Cl)cc6)C(=O)C(C)(C)[C@@H]5CC[C@]43C)[C@@H]12
3. C=C(C)[C@@H]1CC[C@]2(C(=O)O)CC[C@]3(C)[C@H](CC[C@@H]4[C@@]5(C)C[C@@H](CC#Cc6ccccc6)C(=O)C(C)(C)[C@@H]5CC[C@]43C)[C@@H]12
4. NS(=O)(=O)c1ccc(-n2ncc(NC(=O)Nc3ccc(S(=O)(=O)Nc4nccs4)cc3)c2-c2ccccc2)cc1
5. O=C1CCc2ccccc2N1

result:
96.4
46.6
17.9
111
102

---

- Test system: SK-MEL-2 melanoma
- protocol-description: NCI-60 one-dose screen, 48 h (100 = growth as untreated, 0 = no growth, -100 = all killed)
- experimental-parameters: 10 µM unless noted
The panel holds about 83,000 compounds, 20% with a hit somewhere; the sample as a whole holds those more often.
One threshold, 90%, splits the recorded growth values: lower ones are 1 (yes), equal or higher ones are 0 (no).

query: # TODO verify growth < 90% strictly for this compound: COc1ccc(/C=C/C(=O)C(CC2CCC2)C(=O)/C=C/c2ccc(OC)c(OC)c2)cc1OC
result: 1 (yes)

query: Item: COc1cc(C2=NN(c3ccccc3)C(c3cccc(Nc4ccnc5cc(C(F)(F)F)ccc45)c3)C2)cc(OC)c1OC (centres undefined)
result: 1 (yes)

query: Item: N#Cc1c(-c2ccc(F)cc2)nc(N=Nc2c(O)[nH]c3ccccc23)nc1N1CCOCC1
result: 0 (no)

query: Item: CSc1nc(-c2ccc(F)cc2)c(C#N)c(N2CCOCC2)n1
result: 0 (no)

query: Item: CN(C)[C@@H]1C(=O)C(C(N)=O)=C(O)[C@@]2(O)C(=O)C3=C(O)c4c(O)cc(CN5CCc6ccccc6C5)c(Cl)c4C[C@H]3C[C@@H]12
result: 1 (yes)

query: Item: COc1ccc(-c2cn(-c3ccc(Cl)cc3)c(=S)[nH]2)cc1OC
result: 1 (yes)

query: Item: Cc1nc2sc(C(=O)Nc3ccccc3Cl)c(N)c2cc1C(C)O (centres undefined)
result: 1 (yes)

query: Item: COc1cc(/C=C/C(=O)/C=C/c2cc3ccc(Cl)cc3n(Cc3ccccc3)c2=O)ccc1O
result: 1 (yes)

Below: the item to evaluate.
query: # TODO verify growth < 90% strictly for this compound: CN1CCN(/C=C2\CC(C(=O)NCc3ccc(Cl)cc3Cl)NC2=O)CC1 (centres undefined)
result: 0 (no)

The reported measurements were obtained from PubChem BioAssay (NCI).
